Each recorded value in this set is attributed to paper PMC3085948.

Parameter: half-life. Scope: all listed entries.
- assay.comment: Rat or human liver microsome stability
- assay.conditions: rat, human, microsomes

O=C(CCCCCCc1ccccc1)c1ncc(-c2ccccn2)o1; 2 to 4 min

Moving on to another molecule below.
Would you mind telling me what half-life value was observed for O=C(c1ncc(-c2ccccn2)o1)C1CCc2cc(OCc3ccccc3)ccc2C1 (centres unmarked) ?
12 to 15 min
